The origin of these recorded values is patent US7112680B2.

# Test system: Burkitt's lymphoma (CA 46, ATCC No. CRL 1648)
# assay_method_text: Inhibition of tumor cell growth, MTT-assay, Burkitt's lymphoma
# Assay type: cell-based, human
# assay_context: Table 3, 72 hours, read-out: IC50 Burkitts

{"columns": ["mol", "IC50 (nM)"],
 "data": [
  ["C=CCn1c(NN=C(C)c2ccccn2)nc2ccccc21", 980],
  ["CCCn1c(NN=C(C)c2ccccn2)nc2ccccc21", 1280],
  ["CC(=NNc1nc2ccccc2n1Cc1ccccc1)c1ccccn1", 3580],
  ["CC(=NNc1nc2ccccc2n1C(C)C)c1ccccn1", 2140]
]}

----------
# Test system: HT-29 (colon adenocarcinoma)
# assay_method_text: Inhibition of tumor cell growth, SRB-assay, HT-29
# Type: cell-based, human
# assay_context: Table 2, 72 hours, read-out: IC50 HT-29 (converted)
Param label: returns true when IC50 < 300 nM, returns false otherwise, including exact equality.

{"columns": ["mol", "target_or_system", "label_value"],
 "data": [
  ["CC(=NNc1nc2ccccc2o1)c1cc2ccccc2cn1", "HT-29 (colon adenocarcinoma)", "true"],
  ["CC(=NNc1nc2ccccc2o1)c1ncccn1", "HT-29 (colon adenocarcinoma)", "true"],
  ["CC(=NNc1nc2ccccc2[nH]1)c1ccc(C)nn1", "HT-29 (colon adenocarcinoma)", "false"],
  ["CC(=NNc1nc2ccccc2[nH]1)c1cnccn1", "HT-29 (colon adenocarcinoma)", "false"],
  ["CC(=NNc1nc2ccccc2o1)c1ccc(C)nn1", "HT-29 (colon adenocarcinoma)", "false"],
  ["CC(=NNc1nc2ccccc2o1)c1ccncn1", "HT-29 (colon adenocarcinoma)", "true"]
]}

----------
# System: HT-29 (colon adenocarcinoma)
# assay_method_text: Inhibition of tumor cell growth, SRB-assay, HT-29
# Assay type: cell-based, human
# assay_context: Table 2, 72 hours, read-out: IC50 HT-29 (converted)
# Experimental: The KB cell lines were grown in Dulbecco's modified Eagle's medium (4,5 g glucose/l). To the cultures of KB-C1 cells 1 μg of colchicine/ml, and to the hydroxyurea-resistant KB-HU cells 1 mM hydroxyurea was added every other week. […] 3,000 - 10,000 cells in 200 μl medium were seeded per well into 96-well plates. […] Approximately 10,000 cells per 100 μl were seeded in 96-well plates. […] Subsequently, the samples were fixed, washed, and the absorption was determined by a microplate reader.

{"columns": ["mol", "target_or_system", "unit_text", "IC50"],
 "data": [
  ["CC(=NNc1nc2ccccc2[nH]1)c1nccnc1C", "HT-29 (colon adenocarcinoma)", "nM", 2230],
  ["CC(=NNc1nc2ccccc2[nH]1)c1cc(C)ncn1", "HT-29 (colon adenocarcinoma)", "nM", 360],
  ["CC(=NNc1nc2ccccc2o1)c1cccnn1", "HT-29 (colon adenocarcinoma)", "nM", 1770]
]}

----------
# Test system: human tumor grafts (cell lines of FIG. 1)
# assay_method_text: Colony forming assay (two-layer soft agar)
# Format: cell-based
# assay_context: mean values of all cell lines tested in FIG. 1; continuous exposure 3 to 6 days
recorded_endpoint: Mean IC70 (µM)

{"columns": ["mol", "readout_number"],
 "data": [
  ["Cn1c(NN=C(c2ccccc2)c2ccccn2)nc2ccccc21", 0.741],
  ["CC(=NNc1nc2ccccc2n1-c1ccccc1)c1ccccn1", 1.741],
  ["CC(C)C(=NNc1nc2ccccc2n1C)c1ccccn1", 0.521],
  ["Cn1c(NN=C(c2ccccn2)C(C)(C)C)nc2ccccc21", 0.064],
  ["CC(=NNc1nc2ccccc2n1C)c1ccc(-c2ccccc2)cn1", 2.084]
]}
